Cited source for all entries: patent US12324893B2

assay: Effect of filament density, poration energy and filament array size on PK profile (Examples 7-9); set-up: species or system guinea pigs; conditions: guinea pig, in vivo, sc, 2 mg, Table 17 # 2: dose 2.00 mg, 4 mJ/filament, 1.0 cm^2, 400 filaments/cm^2; relative bioavailability against SC injection; read-out: Bioavailability ± SE
measurement.kind: bioavailability (%)

smiles.repr: CN(C)CCc1c[nH]c2ccc(C[C@H]3COC(=O)N3)cc12
reading: 102

----------
experiment: Effect of filament density, poration energy and filament array size on PK profile (Examples 7-9); set-up: species or system guinea pigs; conditions: guinea pig, in vivo, topical or ocular, 2 mg, Table 15 # 2: 400 filaments/cm^2, 3 mJ/filament, area 1.0 cm^2; patch 2.00 mg Zolmitriptan

smiles.repr: CN(C)CCc1c[nH]c2ccc(C[C@H]3COC(=O)N3)cc12
AUC: 1750 ng·h/mL
